B1: minF1; a variant is named by its letters at N, in order (parent)
chain: GAGACCGCAACTGAAAAGTTGTTNNNNAANNNNNGGNTNAATTTCTGCACGTAGAAGCAAAAGGC

Variants of: B1
Test: fraction ligated after 30 min (ligated reads / total reads); higher = more ligase activity
Details: with F1*subA RNA substrate (template-directed ligation), 42 °C
reported.endpoint: fraction ligated

sequence.change | reported.endpoint | assay.result
TCAAGGATGTG T23A | fraction ligated | 0.00271

In: Entry ATCAATGTGTG A28G needs its fraction ligated filled in; supply it.
Out: 0.00293

In: Identify the reported fraction ligated for the following entry. ATCAAAGGTTG A28G
Out: 0.0026

In: Return the recorded fraction ligated value; entry: `TCGATGGATTG`
Out: 0.127

In: Complete the entry with fraction ligated for AAAAGGATGTG A29T
Out: 0.00415

In: Give me measured fraction ligated, please, for this variant: ACAGTGGATGT A40G
Out: 0.017
